Tested on: P388 leukemia ip, CD2F1 mice, survival T/C
Procedure Details: NCI In Vivo Anticancer Drug Screen. Data for tumor model P388 Leukemia (intraperitoneal) in CD2F1 (CDF1) mice
Measurement Context: endpoint: median survival time; dose: 100.0 mg/kg/injection; schedule: Q01DX005 (ip); vehicle: saline with Tween-80; higher = longer survival
Toxic doses and inconclusive results are not listed.
Property Measured: T/C

Consider the worked cases shown below.
Molecule | Property Measured | Result Value
O=C(NCCNCCO)c1cccc(Nc2cc(O)c(O)c3ccccc23)c1 | T/C | 100 % of control
CC(=O)Oc1cccc2c1ccc1nonc12 | T/C | 88 % of control
COc1ccc2c(c1O)-c1cc(O)cc3c1[C@@H](C2)N(C)CC3 | T/C | 104 % of control

Query compound follows.
Entry Cc1ccc2[nH]c(=S)n(-c3ccc(S(=O)(=O)N4CCCCC4)cc3)c(=O)c2c1 needs its T/C filled in; supply it.
91 % of control

###

Parameter T/C: see the listing below.
System: P388 leukemia ip, CD2F1 mice, survival T/C
Procedure Details: NCI In Vivo Anticancer Drug Screen. Data for tumor model P388 Leukemia (intraperitoneal) in CD2F1 (CDF1) mice
Measurement Context: endpoint: median survival time; dose: 100.0 mg/kg/injection; schedule: Q01DX009 (ip); vehicle: saline; higher = longer survival
Toxic doses and inconclusive results are not listed.

Molecule | T/C
O=C(Nc1ccccc1)NC1CCCCCC1 | 98 % of control
CCOP(=O)(NNP(=O)(OCC)OCC)OCC | 103 % of control

Entry [Cl][Mo]([Cl])([Cl])[Cl].[Cl][Mo]([Cl])([Cl])[Cl] needs its T/C filled in; supply it.
99 % of control

Entry CC(Br)C(=O)Nc1ncc([N+](=O)[O-])s1 (stereo unspecified) needs its T/C filled in; supply it.
95 % of control

Entry Nc1cccc(S(=O)(=O)Nc2ncc(Cl)cn2)c1.[Ag] needs its T/C filled in; supply it.
108 % of control

Entry C[n+]1ccccc1C(=O)O needs its T/C filled in; supply it.
103 % of control

Entry CCOC(=O)CS(=O)(=O)CCCS(=O)(=O)CC(=O)OCC needs its T/C filled in; supply it.
96 % of control

Entry NNc1ccc(N(CCO)CCO)nn1 needs its T/C filled in; supply it.
100 % of control

Entry O=C1CCc2cc(O)ccc21 needs its T/C filled in; supply it.
98 % of control

###

Tested on: P388 leukemia ip, CD2F1 mice, survival T/C
Procedure Details: NCI In Vivo Anticancer Drug Screen. Data for tumor model P388 Leukemia (intraperitoneal) in CD2F1 (CDF1) mice
Measurement Context: endpoint: median survival time; dose: 100.0 mg/kg/injection; schedule: Q01DX001 (ip); vehicle: saline with Tween-80; higher = longer survival
Experimental: The antitumor activity of compounds was measured in mice bearing transplantable tumors. Survival or tumor size were measured and the results are expressed as the measurement made in the treated group (T) divided by the measurement made in the vehicle treated control group (C). The tumor model used in this assay is P388 Leukemia (intraperitoneal) in CD2F1 (CDF1) mice
Inconclusive results and toxic doses are left out.
Property Measured: T/C

Consider the worked cases shown below.
Compound | T/C
CNC(=S)N/N=C/c1nc2ccccc2c(=O)n1-c1ccc(Cl)cc1 | 102 % of control
Cc1cccc(OCC(O)CN2CC2)c1 (stereo unspecified) | 112 % of control
Cc1ccc(SCc2c(COc3ccc(Cl)cc3)sc3ccc(Cl)cc23)cc1 | 90 % of control
CSc1nc2n(C)cc(C)cc-2c(=O)n1 | 99 % of control
c1ccc(CN2CCCC3CCCC32)cc1 (stereo unspecified) | 97 % of control

Entry COc1cc2ccnc(-c3nccc4cc(OC)c(OC)cc34)c2cc1OC needs its T/C filled in; supply it.
97 % of control

Entry CCOC(=O)/C=C(\C(=O)OCC)N(O)C(=O)CN1C(=O)c2ccccc2C1=O needs its T/C filled in; supply it.
105 % of control

Entry COC(=O)[C@]12C(=O)C=CC(=O)C1CC=CC2C(OC(C)=O)C(COC(C)=O)OC(C)=O (stereo partly specified) needs its T/C filled in; supply it.
103 % of control

Entry c1ccc(C2OCCN2c2ccccc2)cc1 (stereo unspecified) needs its T/C filled in; supply it.
101 % of control

Entry O=NN(CCCl)C(=O)Oc1ccc(Cl)cc1Cl needs its T/C filled in; supply it.
122 % of control

Entry S=C(S)n1nc(-c2ccccc2)c(N=Nc2cccc(Cl)c2)c1-c1ccccc1 needs its T/C filled in; supply it.
91 % of control
